Molecular target: HER2 S310F (Homo sapiens, UniProt P04626, S310F)
Construct: expressed in transfected cells; host or cells: BaF3 (murine pro-B) transformants
Sequence (P04626 23-1255 S310F): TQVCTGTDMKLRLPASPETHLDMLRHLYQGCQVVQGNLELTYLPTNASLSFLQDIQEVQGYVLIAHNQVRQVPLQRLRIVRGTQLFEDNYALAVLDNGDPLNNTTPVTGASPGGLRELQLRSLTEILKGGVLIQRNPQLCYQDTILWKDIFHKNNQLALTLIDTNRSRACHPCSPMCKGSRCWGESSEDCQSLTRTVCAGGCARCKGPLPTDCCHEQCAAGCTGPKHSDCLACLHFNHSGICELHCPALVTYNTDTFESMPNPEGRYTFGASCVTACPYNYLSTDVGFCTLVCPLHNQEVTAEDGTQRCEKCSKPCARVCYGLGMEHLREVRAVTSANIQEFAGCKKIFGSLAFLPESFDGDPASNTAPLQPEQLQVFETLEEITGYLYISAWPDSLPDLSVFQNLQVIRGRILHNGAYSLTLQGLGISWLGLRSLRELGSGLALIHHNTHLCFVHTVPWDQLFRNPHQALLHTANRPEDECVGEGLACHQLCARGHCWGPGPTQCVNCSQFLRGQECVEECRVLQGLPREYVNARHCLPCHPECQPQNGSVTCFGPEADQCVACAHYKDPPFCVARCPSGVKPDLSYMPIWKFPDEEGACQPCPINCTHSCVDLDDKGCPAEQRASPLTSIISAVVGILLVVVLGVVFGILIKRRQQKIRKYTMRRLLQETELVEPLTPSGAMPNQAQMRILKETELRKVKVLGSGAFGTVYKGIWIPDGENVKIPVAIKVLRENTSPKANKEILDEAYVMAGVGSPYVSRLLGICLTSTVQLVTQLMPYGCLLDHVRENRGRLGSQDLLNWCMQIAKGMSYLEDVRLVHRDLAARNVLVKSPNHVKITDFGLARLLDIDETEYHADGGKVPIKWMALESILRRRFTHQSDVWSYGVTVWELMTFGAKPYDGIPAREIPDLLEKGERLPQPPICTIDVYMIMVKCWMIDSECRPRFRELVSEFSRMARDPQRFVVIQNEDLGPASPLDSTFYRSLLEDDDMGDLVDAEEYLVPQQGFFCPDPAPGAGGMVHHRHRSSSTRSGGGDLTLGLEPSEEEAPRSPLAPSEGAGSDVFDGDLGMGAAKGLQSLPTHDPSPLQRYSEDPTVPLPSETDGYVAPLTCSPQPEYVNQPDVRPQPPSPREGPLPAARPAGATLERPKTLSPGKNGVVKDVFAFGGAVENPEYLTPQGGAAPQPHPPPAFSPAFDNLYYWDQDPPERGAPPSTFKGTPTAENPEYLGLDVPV
Assay: Assay for cell proliferation (BaF3 transformants, CellTiterGlo), Activity for Inhibiting HER2
Assay type: cell-based
Conditions: Table B (Example 2), potency code; 3 days drug
Value type: IC50

Check out these entries, answers already filled in.
> print(dat)
                                   molecule       reported
1  C=CC(=O)Nc1cc2c(Nc3ccc4c(cnn4Cc4cccc(F)c4)c3)ncnc2cc1NCCN1CCOCC1 [compound 5]  100 to 200 nM
2  C=CC(=O)Nc1cc2c(Nc3ccc4c(cnn4Cc4cccc(F)c4)c3)ncnc2cc1N(C)CCN1CCOCC1 [compound 2]  100 to 200 nM
3  C=CC(=O)Nc1cc2c(Nc3ccc4c(cnn4Cc4cccc(F)c4)c3)ncnc2cc1N(C)CCN(C)C [compound 1]  100 to 200 nM
4  C=CC(=O)Nc1cc2c(Nc3ccc4c(cnn4Cc4cccc(F)c4)c3)ncnc2cc1C#CC(C)(C)N1CCN(C)CC1 [compound 9]    10 to 20 nM
5  C=CC(=O)Nc1cc2c(Nc3ccc4c(cnn4Cc4cccc(F)c4)c3)ncnc2cc1OCCCN1CC2CC1CO2 (stereo not shown) [compound 6]    10 to 20 nM
6  C=CC(=O)Nc1cc2c(Nc3ccc4c(cnn4Cc4cccc(F)c4)c3)ncnc2cc1N(C)CCCN1CCOCC1 [compound 4]  100 to 200 nM

Prompt line: Tell me the measured IC50 of C=CC(=O)Nc1cc2c(Nc3ccc4c(cnn4Cc4cccc(F)c4)c3)ncnc2cc1OCCN1CCCCC1 [compound 8] , please.
Response line: 10 to 20 nM

Prompt line: Can you handle C=CC(=O)Nc1cc2c(Nc3ccc4c(cnn4Cc4cccc(F)c4)c3)ncnc2cc1OCCN1CCOCC1 [compound 3] next?
Response line: 5 to 10 nM

Prompt line: C=CC(=O)Nc1cc2c(Nc3ccc4c(cnn4Cc4cccc(F)c4)c3)ncnc2cc1OCCN(C)C [compound 10] , same question.
Response line: 20 to 30 nM

Prompt line: Thanks! And C=CC(=O)Nc1cc2c(Nc3ccc4c(cnn4Cc4cccc(F)c4)c3)ncnc2cc1N(C)CCCN1CC2CC1CO2 (stereo not shown) [compound 7] ?
Response line: 100 to 200 nM
